target: His-tagged protein corresponding to amino acids 575-869 of human Tyk2 (Homo sapiens, UniProt P29597); experiment: Probe displacement assay (scintillation proximity, radiolabeled probe); details: 2.5 nM Tyk2 (575-869), 40 nM [3H] probe, 30 minutes at room temperature
Sequence (P29597 with tags, fused parts or gaps): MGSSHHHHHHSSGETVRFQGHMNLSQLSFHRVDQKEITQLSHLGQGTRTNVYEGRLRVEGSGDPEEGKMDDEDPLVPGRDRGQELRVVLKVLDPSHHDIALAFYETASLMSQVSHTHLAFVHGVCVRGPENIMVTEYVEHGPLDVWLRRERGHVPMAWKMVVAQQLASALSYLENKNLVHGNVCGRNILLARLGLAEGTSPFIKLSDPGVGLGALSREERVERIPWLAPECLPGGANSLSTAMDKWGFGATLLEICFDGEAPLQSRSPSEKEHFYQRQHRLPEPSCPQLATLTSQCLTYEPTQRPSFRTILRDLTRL
reported-endpoint: pEC50
Quick note: pEC50 values are minus log10 of concentrations in mol/L.

compound-structure: CNc1cc(Nc2cccn(-c3ccc(C(F)F)cc3)c2=O)nn2c(C(=O)NCC(C)(C)CO)cnc12
pEC50: 8.40
//
compound-structure: CNc1cc(Nc2cccn(-c3ccccn3)c2=O)nn2c(C(=O)NCc3nccs3)cnc12
pEC50: 7.64

Could you now consider this next compound?
Noted for CNc1cc(Nc2cccn(-c3cccnn3)c2=O)nn2c(C(=O)NC(C)C)cnc12 : its pEC50 reads 7.89
